Let's look at some compounds and their measured cell count.
# ASSAY SUMMARY: sensitizers of A549 cells to miR-34 induction, primary screen, imaging, A549 dox-inducible miR-34, nuclei and caspase counts (AID 1347080)
# PARTICULARS: A549 miR-34 inducible, Hoechst nuclei count, 48 h; measured here: total cells without miR-34 induction
VALUE KIND: cell count

COMPOUND | MEASURED NUMBER
CC(=O)[C@H]1CCC2C3C[C@H](C)C4=CC(=O)CC[C@]4(C)C3[C@@H](O)C[C@@]21C (some centres undefined) | 9220
Nc1ncnc2c1ncn2[C@@H]1O[C@H](CO)C[C@H]1O | 9630
C[C@@H]1CC2C3C[C@H](F)C4=CC(=O)C=C[C@]4(C)[C@@]3(F)[C@@H](O)C[C@]2(C)[C@@]1(O)C(=O)CO (some centres undefined) | 8520
c1ccc(-c2ccccn2)nc1 | 10100
CCCCCC(O)C1C(=O)OC(C)C(O)/C=C/C=C/C=C/C=C/C=C(\C)C(O)CC(O)CC(O)CC(O)CC(O)CC(O)CC1O (centres undefined) | 12300
FC(F)(F)c1ccc(/C=C/c2nc(COc3ccc(CCCCn4ccnn4)cc3)co2)cc1 | 3770
CC(=CCC1=C(C)C(=O)c2ccccc2C1=O)CCCC(C)CCCC(C)CCCC(C)C (centres undefined) | 6060
C[C@]12CCC(=O)C=C1[C@@H]1C[C@@H]1C1C2CC[C@@]2(C)C1[C@@H]1C[C@@H]1[C@@]21CCC(=O)O1 (some centres undefined) | 7840
Nc1ccc2cn[nH]c2c1 | 8800

====

Catalogue of inhibition values
# ASSAY SUMMARY: HepG2 cytotoxicity, primary screen, cytotoxicity control for P. falciparum antimalarial project, cell-based, ATP luminescence (AID 2303);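 note: 0% = DMSO wells and 100% = digitonin-killed cells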
# PARTICULARS: HepG2 viability, 24-48 h, at 10 µM, stronger effect = higher value
The source made the active and inactive calls.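 Rule for the calls: active = inhibition above 50%; inactive = the rest.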

MOLECULE | inhibition
CCS(=O)(=O)c1ccc(/C(=N/OC)c2ccc[nH]2)cc1 | -6% (inactive)
CNC(=O)/C=C/c1cc(NC(=O)Nc2cc(C)nc3c(F)cccc23)ccc1OC | -3% (inactive)
O=C(NCCN1CCC(c2ccncc2)CC1)c1ccc(Nc2nccc(Nc3ccc(Oc4ccccc4)cc3)n2)cc1 | 17% (inactive)
CN(C)c1c(CNCCCCCCNCc2ccc3ccccc3c2N(C)C)ccc2ccccc12 | 100% (active)
O=C(CSc1nc2ccc([N+](=O)[O-])cc2s1)Nc1ccccc1-c1ccccc1 | -1% (inactive)
Oc1ccc(CNCC2CCN(CC3CCCCC3)CC2)cc1 | 9% (inactive)
CC(C)CNCc1cccc(-c2ccccc2CNC2CCN(Cc3ccccc3)CC2)c1 | 25% (inactive)
CCCCN1CCCC[C@H]1[C@@H](O)c1ccnc2ccc(OCC)cc12 | 6% (inactive)
COc1ccc(-c2ccc([N+](=O)[O-])cc2C(=O)NCC(C)Oc2ccc(C(F)(F)F)cc2)cc1 (centres undefined) | 6% (inactive)
CC(C)Sc1nc2c(c(=O)n1Cc1ccco1)C1(CCCCC1)Cc1ccccc1-2 | 10% (inactive)
NC(=O)c1sc(-n2cnc3ccc(C(=O)NCCN4CCOCC4)cc32)cc1OCc1ccccc1C(F)(F)F | -15% (inactive)
CC(C)c1ccc(NC(=O)c2ccc(C(=O)NC3CCN(CC4CCCCC4)C3)cc2)cc1 (centres undefined) | 35% (inactive)
CS(=O)(=O)Nc1cccc(-c2cnc3[nH]cc(-c4cccc(CN)c4)c3c2)c1 | 25% (inactive)
CC(=O)CCc1ccc(OCCN(Cc2ccccc2C(F)(F)F)c2ccc(C#N)c(C(F)(F)F)c2)cc1 | 14% (inactive)
CN1CCN(Cc2cccc(Nc3nccc(Nc4ccc(Oc5ccccc5)cc4)n3)c2)CC1 | 30% (inactive)
O=C(NCCCCN1CCC(c2ccc3c(c2OCCOCCO)CCCC3)CC1)c1ccc(-c2ccc(C(F)(F)F)cc2)cc1 | 44% (inactive)
O=c1cc(NCCCNCc2[nH]c3cc(Cl)ccc3c2Cl)[nH]c2ccccc12 | 5% (inactive)
CC(C)(CNCc1ccc(OC(F)(F)F)cc1)c1nc(-c2ccc(Cl)c(O)c2)c(-c2ccncc2)[nH]1 | 38% (inactive)
COc1ccc2ncc(F)c(CCN3CCC(NCc4ccc5c(c4)CCO5)CC3)c2n1 | 20% (inactive)

====

# ASSAY SUMMARY: sensitizers of A549 cells to miR-34 induction, primary screen, imaging, A549 dox-inducible miR-34, nuclei and caspase counts (AID 1347080)
# PARTICULARS: A549 miR-34 inducible, Hoechst nuclei count, 48 h; measured here: relative caspase fold change +Dox/-Dox
Square brackets hold non-standard residues; d marks the D form. Side chains are listed from the residue outwards. Peptide text beside a SMILES is read from it. * marks the point of attachment. X2 = CCC(C)C(N)C1=NC(C(=O)*)CS1; Orn = NCCC[CH](N)C(=O)O
VALUE KIND: fold change

COMPOUND | VALUE KIND | MEASURED NUMBER
Nc1nccc(-c2ccc3noc(-c4ccc(Cl)cc4)c3c2)n1 | fold change | 2.19
O=C(OC[C@H]1O[C@H](OC(=O)c2cc(O)c(O)c(OC(=O)c3cc(O)c(O)c(O)c3)c2)[C@H](OC(=O)c2cc(O)c(O)c(OC(=O)c3cc(O)c(O)c(O)c3)c2)[C@@H](OC(=O)c2cc(O)c(O)c(OC(=O)c3cc(O)c(O)c(O)c3)c2)[C@@H]1OC(=O)c1cc(O)c(O)c(OC(=O)c2cc(O)c(O)c(O)c2)c1)c1cc(O)c(O)c(OC(=O)c2cc(O)c(O)c(O)c2)c1 | fold change | 1.46
CCC(C)C(N)C1=NC(C(=O)NC(CC(C)C)C(=O)NC(CCC(=O)O)C(=O)NC(C(=O)NCCCCC2NC(=O)C(CC(N)=O)NC(=O)C(CC(=O)O)NC(=O)C(Cc3cnc[nH]3)NC(=O)C(Cc3ccccc3)NC(=O)C(C(C)CC)NC(=O)C(CCCN)NC2=O)C(C)CC)CS1 (stereo not drawn) (cyclo(DNK([Ile-Glu-Leu-X2])[Orn]IFH); configuration not given here) | fold change | 0.994
CC(=O)OCC(=O)C12OC3(CCCC3)OC1CC1C3CCC4=CC(=O)C=CC4(C)C3(F)C(O)CC12C (stereo not given) | fold change | 1.12
Cc1c(-c2cnccn2)ssc1=S | fold change | 1.25

====

# ASSAY SUMMARY: sensitizers of A549 cells to miR-34 induction, primary screen, imaging, A549 dox-inducible miR-34, nuclei and caspase counts (AID 1347080)
# PARTICULARS: A549 miR-34 inducible, Hoechst nuclei count, 48 h; measured here: total cells with miR-34 induction; stronger effect = lower value
Lab note: cut-off is 9000. Strictly less in cell count is yes. Exactly 9000 or more is no.

MOLECULE | LABEL VALUE
CO[C@H]1/C=C/O[C@@]2(C)Oc3c(C)c(O)c4c(O)c(c5c(c4c3C2=O)NC2(CCN(CC(C)C)CC2)N=5)=NC(=O)/C(C)=C\C=C\[C@H](C)[C@H](O)[C@@H](C)[C@@H](O)[C@@H](C)[C@H](OC(C)=O)[C@@H]1C | yes
Cc1cc(I)ccc1Nc1c(C(=O)NOCC2CC2)cc(F)c(F)c1F | yes
CC(=O)O[C@]1(C(C)=O)CCC2C3C=C(Cl)C4=CC(=O)[C@@H]5C[C@@H]5[C@]4(C)C3CC[C@@]21C (stereo partly drawn) | no
CC(C)CCCC(C)[C@H]1CCC2C3CC=C4C[C@@H](O)CC[C@]4(C)C3CC[C@@]21C (stereo partly drawn) | no
O=C1/C(=C/c2cccs2)CCC/C1=C\c1cccs1 | yes
CCC(=O)OCC(=O)C1(OC(=O)CC)C(C)CC2C3CCC4=CC(=O)C=CC4(C)C3(Cl)C(O)CC21C (stereo not drawn) | yes

====

# ASSAY SUMMARY: ovarian cancer cell viability with rucaparib, profiling panel, oncology-focused library, rucaparib conditional (AID 1508598)
# PARTICULARS: patient-derived ovarian cancer cells, CellTiter-Glo viability, 144 h; at 0.313 µM; OCI-C5x cells; with rucaparib 10 µM; stronger effect = lower value; 100% = cells with rucaparib alone

COMPOUND | MEASURE UNIT | viability
N#Cc1c(O)c2c(-c3ccc(-c4ccccc4O)cc3)csc2[nH]c1=O | % | 115
C[C@H](NC(=O)Cc1cc(F)cc(F)c1)C(=O)N[C@H](C(=O)OC(C)(C)C)c1ccccc1 | % | 106
O=c1[nH]c(-c2ccc(C(F)(F)F)cc2)nc2c1CSCC2 | % | 107
NC(=O)Nc1sc(-c2ccc(F)cc2)cc1C(N)=O | % | 124
CS(=O)c1ccc(-c2nc(-c3ccc(F)cc3)c(-c3ccncc3)[nH]2)cc1 (stereo not given) | % | 129

====

Form field: growth inhibition (one value per entry).
# ASSAY SUMMARY: inhibition of 3D7 malaria parasite growth – strain 3D7 (AID 2306);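 note: 0% = DMSO wells and 100% = chloroquine plus artemisinin control wells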
# PARTICULARS: P. falciparum 3D7 erythrocytic growth, LDH absorbance, 72 h; at 2 µM; stronger effect = higher value
VALUE KIND: growth inhibition (%)

COMPOUND | MEASURED NUMBER
Cc1[nH]c(C)c(-c2ccc(Oc3cc(Cl)cc(Cl)c3)cc2)c(=O)c1Br | 96
CCc1cn2c3c(cc(C(=O)N[C@@H](Cc4ccccc4)[C@H](O)CNC4CCOCC4)cc13)N(C)S(=O)(=O)C2 | 99
FC(F)(F)c1ccc(Nc2nnnc3ccccc23)cc1 | 90
CCN(CC)CCNC(=O)c1ccc(Nc2ncc([N+](=O)[O-])c(Nc3ccccc3OC)n2)cc1 | 97
CCOc1cc(Cc2cnc(N)nc2N)ccc1OC | 88
O=C(c1ccccc1[N+](=O)[O-])N(Cc1ccccc1)c1ccccn1 | 91
CC(C)C[C@H](NC(=O)c1ccc(OCCN2CCOCC2)cc1)C(=O)N[C@H](/C=N/N1CC(=O)NC1=O)CCc1ccccc1 | 88
Cc1cccc2[nH]c(-c3ccc(-c4cccc(CN5CCC(C(N)=O)CC5)c4)cc3)nc12 | 87
C[C@@H](CC1CCCCC1)OC(=O)N(C)[C@@H]1CCN(C#N)C1 | 95
COc1cc(Cc2cnc(N)nc2N)cc(OCCCCNS(=O)(=O)C(F)(F)F)c1OC | 84
O=C(Nc1ccccc1)Nc1cccc(-c2cc(CNCCc3ccccc3)sc2-c2ccncc2)c1 | 100
Cc1onc(-c2c(Cl)cccc2Cl)c1C(=O)NC1=NC(C)(C)ON1c1ccccc1 | 97
CC(C)C(=O)ONC1=NC(C)(C)N(OCCCOc2cc(Cl)c(Cl)cc2Cl)C(NOC(=O)C(C)C)=N1 | 92
CC(=O)Oc1c(Cl)c(C)nc(C)c1-c1ccc(Oc2ccc(Cl)cc2)cc1 | 98
CN1CCN(Cc2cccc(Nc3nccc(Nc4ccc(Oc5ccccc5)cc4)n3)c2)CC1 | 97
CCc1c(CCNCCCCCCNCCc2ccc(OC)cc2)ccc(OC)c1OC | 98
CCS(=O)(=O)c1ccc(OC)c(Nc2nccc(-c3c(-c4cccc(NC(=O)c5c(F)cccc5F)c4)nn4ncccc34)n2)c1 | 87
CC(C)c1ccc2c(c1)C(=O)c1ccc(C(=O)O)cc1S2(=O)=O | 93
COc1ccc(CN(C)Cc2ccc(NC(=O)c3cccc4c(=O)c5cccc(C)c5[nH]c34)cc2)cc1OC | 92
Oc1ccc(-c2ccccc2)cc1CNC1CCCCC1 | 95
